- Tested on: COLO-824
- test.summary: cells
- Format: functional, cell-based, Homo sapiens
- cond: Homo sapiens, COLO-824
- Description: SANGER: Inhibition of human COLO-824 cell growth in a cell viability assay.
Overview of recorded IC50 for various compounds

[
  {
    "given.smiles": "CNC(=O)c1cc(Oc2ccc(NC(=O)Nc3ccc(Cl)c(C(F)(F)F)c3)cc2)ccn1",
    "IC50": "> 4 µM"
  },
  {
    "given.smiles": "COc1ccc(-c2ccc3c(N4CCOC[C@@H]4C)nc(N4CCOC[C@@H]4C)nc3n2)cc1CO",
    "IC50": "> 2 µM"
  },
  {
    "given.smiles": "CCc1nc(N)nc(N)c1-c1ccc(Cl)cc1",
    "IC50": "> 20 µM"
  },
  {
    "given.smiles": "Cn1cncc1[C@@](N)(c1ccc(Cl)cc1)c1ccc2c(c1)c(-c1cccc(Cl)c1)cc(=O)n2C",
    "IC50": "> 16 µM"
  },
  {
    "given.smiles": "COc1ccc(C2=N[C@@H](c3ccc(Cl)cc3)[C@@H](c3ccc(Cl)cc3)N2C(=O)N2CCNC(=O)C2)c(OC(C)C)c1",
    "IC50": "> 8 µM"
  },
  {
    "given.smiles": "CN(c1ncccc1CNc1nc(Nc2ccc3c(c2)CC(=O)N3)ncc1C(F)(F)F)S(C)(=O)=O",
    "IC50": "> 2.56 µM"
  }
]

====

- Tested on: P31-FUJ;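 note: growth inhibition of P31-FUJ cells, read out with a viability assay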
- test.summary: cells
- Format: functional, cell-based
- cond: Homo sapiens
- Description: SANGER: Inhibition of human P31-FUJ cell growth in a cell viability assay.
pIC50: −log10 of the molar value.

[
  {
    "given.smiles": "CS(=O)(=O)CCNCc1ccc(-c2ccc3ncnc(Nc4ccc(OCc5cccc(F)c5)c(Cl)c4)c3c2)o1",
    "pIC50": "< 5.70"
  },
  {
    "given.smiles": "CO[C@H]1C[C@@H]2CC[C@@H](C)[C@@](O)(O2)C(=O)C(=O)N2CCCC[C@H]2C(=O)O[C@H]([C@H](C)C[C@@H]2CC[C@@H](O)[C@H](OC)C2)CC(=O)[C@H](C)/C=C(\\C)[C@@H](O)[C@@H](OC)C(=O)[C@H](C)C[C@H](C)/C=C/C=C/C=C/1C",
    "pIC50": "< 7.00"
  },
  {
    "given.smiles": "Cc1cc(Nc2cc(N3CCN(C)CC3)nc(Sc3ccc(NC(=O)C4CC4)cc3)n2)n[nH]1",
    "pIC50": "< 5.70"
  }
]

====

Overview of recorded pIC50 for various molecules
- Test system: LS-411N
- test.summary: cells
- Format: functional, cell-based, Homo sapiens
- cond: Homo sapiens, LS-411N
pIC50: −log10 of the molar value.
value.type: pIC50

[
  {
    "given.smiles": "CCC1=C[C@@H]2CN(C1)Cc1c([nH]c3ccccc13)[C@@](C(=O)OC)(c1cc3c(cc1OC)N(C)[C@H]1[C@@](O)(C(=O)OC)[C@H](OC(C)=O)[C@]4(CC)C=CCN5CC[C@]31[C@@H]54)C2",
    "qualifier.operator": "=",
    "value.observed": 8.50
  },
  {
    "given.smiles": "CN1CCN(CCOc2cc(OC3CCOCC3)c3c(Nc4c(Cl)ccc5c4OCO5)ncnc3c2)CC1",
    "qualifier.operator": "<",
    "value.observed": 5.70
  },
  {
    "given.smiles": "CCC(=O)N1CCN(c2ccc(-n3c(=O)ccc4cnc5ccc(-c6cnc7ccccc7c6)cc5c43)cc2C(F)(F)F)CC1",
    "qualifier.operator": "=",
    "value.observed": 7.84
  },
  {
    "given.smiles": "COc1ccc(-c2ccc3c(N4CCOC[C@@H]4C)nc(N4CCOC[C@@H]4C)nc3n2)cc1CO",
    "qualifier.operator": "=",
    "value.observed": 5.94
  },
  {
    "given.smiles": "Cn1cncc1[C@@](N)(c1ccc(Cl)cc1)c1ccc2c(c1)c(-c1cccc(Cl)c1)cc(=O)n2C",
    "qualifier.operator": "=",
    "value.observed": 5.96
  },
  {
    "given.smiles": "Cc1cc(Nc2cc(N3CCN(C)CC3)nc(Sc3ccc(NC(=O)C4CC4)cc3)n2)n[nH]1",
    "qualifier.operator": "=",
    "value.observed": 6.24
  }
]

====

- Test system: HCC38;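 note: cell viability assay on the human HCC38 cell line, with IC50 marking the concentration that inhibits cell growth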
- test.summary: cells
- Format: functional, cell-based, Homo sapiens
- cond: Homo sapiens, HCC38
- Description: SANGER: Inhibition of human HCC38 cell growth in a cell viability assay.
value.type: IC50

[
  {
    "compound": "COc1ccc(C2=N[C@@H](c3ccc(Cl)cc3)[C@@H](c3ccc(Cl)cc3)N2C(=O)N2CCNC(=O)C2)c(OC(C)C)c1",
    "value.observed": "> 8 µM"
  },
  {
    "compound": "CN(c1ncccc1CNc1nc(Nc2ccc3c(c2)CC(=O)N3)ncc1C(F)(F)F)S(C)(=O)=O",
    "value.observed": "> 2.56 µM"
  },
  {
    "compound": "O=c1cc(-c2cccc3c2Sc2ccccc2S3)oc(N2CCOCC2)c1",
    "value.observed": "> 10 µM"
  },
  {
    "compound": "C=CCc1cccc(/C=N/NC(=O)CN2CCN(Cc3ccccc3)CC2)c1O",
    "value.observed": "> 2.56 µM"
  },
  {
    "compound": "COc1cc(F)c(F)c(Nc2ccc(I)cc2F)c1NS(=O)(=O)C1(CC(O)CO)CC1 (stereo unspecified)",
    "value.observed": "> 5 µM"
  },
  {
    "compound": "O=C1N=C(NCc2cccs2)S/C1=C\\c1ccc2ncccc2c1",
    "value.observed": "> 5 µM"
  }
]

====

- Test system: MHH-ES-1;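 note: cell growth inhibition measured by a cell viability assay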
- test.summary: cells
- Type: functional, cell-based, Homo sapiens
- cond: Homo sapiens, MHH-ES-1
- Description: SANGER: Inhibition of human MHH-ES-1 cell growth in a cell viability assay.
pIC50: −log10 of the molar value.

[
  {
    "compound": "C=CCNC1=C2C[C@@H](C)C[C@H](OC)[C@H](O)[C@@H](C)/C=C(\\C)[C@H](OC(N)=O)[C@@H](OC)/C=C\\C=C(/C)C(=O)NC(=CC1=O)C2=O",
    "qualifier.operator": "=",
    "pIC50": 6.63
  },
  {
    "compound": "CCC1=C[C@@H]2CN(C1)Cc1c([nH]c3ccccc13)[C@@](C(=O)OC)(c1cc3c(cc1OC)N(C)[C@H]1[C@@](O)(C(=O)OC)[C@H](OC(C)=O)[C@]4(CC)C=CCN5CC[C@]31[C@@H]54)C2",
    "qualifier.operator": "=",
    "pIC50": 8.41
  },
  {
    "compound": "COC(=O)CNC(=O)C(=O)OC",
    "qualifier.operator": "=",
    "pIC50": 3.94
  },
  {
    "compound": "O=C(NOCC1CC1)c1ccc(F)c(F)c1Nc1ccc(I)cc1Cl",
    "qualifier.operator": "<",
    "pIC50": 5.00
  },
  {
    "compound": "COc1cc(F)c(F)c(Nc2ccc(I)cc2F)c1NS(=O)(=O)C1(CC(O)CO)CC1 (configuration not stated)",
    "qualifier.operator": "<",
    "pIC50": 5.30
  },
  {
    "compound": "Cn1cc(C2=C(c3ccc(Cl)cc3Cl)C(=O)NC2=O)c2ccccc21",
    "qualifier.operator": "<",
    "pIC50": 5.00
  },
  {
    "compound": "Cc1ccc(Nc2nccc(N(C)c3ccc4c(C)n(C)nc4c3)n2)cc1S(N)(=O)=O",
    "qualifier.operator": "<",
    "pIC50": 5.10
  }
]

====

- Test system: NOMO-1
- test.summary: cells
- Assay type: functional, cell-based
- cond: Homo sapiens
- Description: SANGER: Inhibition of human NOMO-1 cell growth in a cell viability assay.
pIC50: −log10 of the molar value.
Overview of recorded pIC50 for various compounds
value.type: pIC50

[
  {
    "compound": "O=C(/C=C/c1ccccc1)NC(NC(=S)Nc1cccc2cccnc12)C(Cl)(Cl)Cl (stereo not drawn)",
    "value.observed": "< 4.80"
  },
  {
    "compound": "CN1CCN(CCOc2cc(OC3CCOCC3)c3c(Nc4c(Cl)ccc5c4OCO5)ncnc3c2)CC1",
    "value.observed": "< 5.70"
  },
  {
    "compound": "CS(=O)(=O)CCNCc1ccc(-c2ccc3ncnc(Nc4ccc(OCc5cccc(F)c5)c(Cl)c4)c3c2)o1",
    "value.observed": "< 5.70"
  },
  {
    "compound": "COc1ccc(C2=N[C@@H](c3ccc(Cl)cc3)[C@@H](c3ccc(Cl)cc3)N2C(=O)N2CCNC(=O)C2)c(OC(C)C)c1",
    "value.observed": "< 5.10"
  },
  {
    "compound": "CN(Cc1cnc2nc(N)nc(N)c2n1)c1ccc(C(=O)N[C@@H](CCC(=O)O)C(=O)O)cc1 [METHOTREXATE]",
    "value.observed": 7.79
  },
  {
    "compound": "CN(c1ncccc1CNc1nc(Nc2ccc3c(c2)CC(=O)N3)ncc1C(F)(F)F)S(C)(=O)=O",
    "value.observed": "< 5.59"
  },
  {
    "compound": "CCOc1nc(NC(=O)Cc2cc(OC)ccc2OC)cc(N)c1C#N",
    "value.observed": "< 5.00"
  },
  {
    "compound": "Cc1cc([C@@H](C)Nc2ccccc2C(=O)O)c2nc(N3CCOCC3)cc(=O)n2c1",
    "value.observed": 5.48
  }
]
